test: NCI Yeast Anticancer Drug Screen. Data for the rad14 strain (AID 159);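 further: 0% = growth of vehicle-treated control cultures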; conditions: S. cerevisiae rad14 strain growth inhibition; at 3.7 µM; hits give high values
Compounds without any hit were thinned out: in the full panel of roughly 79,000, 15% have a hit. The source made the active and inactive calls. No stated cut-off is given here; in the data, active means growth inhibition above about 70%; inactive means the rest.
Quantity: growth inhibition

compound=CCC(C)(C)c1ccc(Oc2cccc(C(=O)O)c2)cc1 experimental_result="-14% (inactive)"
compound=S=c1[nH]c2cc3ccccc3cc2[nH]1 experimental_result="-11% (inactive)"
compound=COc1ccc2c(c1)n([O-])c1ccccc1[n+]2=O experimental_result="12% (inactive)"
compound=N#CNC(N)=Nc1cc2ccccc2c2ccccc12 experimental_result="53% (inactive)"
compound=CCCC(=O)Oc1ccc(/C=N/NC(N)=S)nc1 experimental_result="2% (inactive)"
compound=CNC(=O)OCc1c(COC(=O)NC)c2n(c1C)-c1ccc(OC)cc1CCC2 experimental_result="-16% (inactive)"
compound="Cc1c2cccc(Sc3ccccc3)c2c2c3c(cccc13)[S+](c1ccccc1)C2 (stereo unspecified)" experimental_result="17% (inactive)"
compound=COc1cc2cc3c4cc(OC)c(OC)cc4cc[n+]3c(C)c2cc1OC experimental_result="-22% (inactive)"
compound=O=C1c2ccccc2C(=O)N1CCCC(=O)n1cc(F)c(=O)[nH]c1=O experimental_result="-40% (inactive)"
compound=COc1ccc(C(=O)c2ccccc2C(=O)c2ccccc2OC)cc1 experimental_result="-5% (inactive)"
compound=CCCCC/C(=C(\C#N)C(=O)OCC)c1ccccc1 experimental_result="-2% (inactive)"
compound=Cc1cc2c3ccccc3c3ccccc3c2nn1 experimental_result="8% (inactive)"
compound=Cc1cc(NCCCCCCCCNc2cc(C)nc3cc(N)ccc23)c2ccc(N)cc2n1 experimental_result="-35% (inactive)"
compound=CCOC(=O)c1[nH]n(-c2ccccc2)c(=O)c1C=NC(=S)C(N)=S experimental_result="-15% (inactive)"
compound=O=C1Nc2ccc(Br)cc2C1=Nc1ccc2c(c1)OCO2 experimental_result="-29% (inactive)"
compound=Cc1cc(=O)oc2c(C)c3occc(=O)c3cc12 experimental_result="2% (inactive)"
compound="O=C(O)C1CC(c2ccccc2)=NN1c1ccccc1 (stereo unspecified)" experimental_result="-15% (inactive)"
compound=CC(C)=NOC(=O)Nc1ccc(Cl)cc1 experimental_result="-50% (inactive)"
compound="Nc1ccn(C2OC(COP(=O)(O)O)C(O)C2O)c(=O)n1 (stereo unspecified)" experimental_result="6% (inactive)"
compound=CCCCCCSc1ncnc2[nH]ncc12 experimental_result="1% (inactive)"
compound=Cc1cc(C(C)(C)C)c(OCCCN2CCOCC2)c(C(C)(C)C)c1 experimental_result="-1% (inactive)"
compound="CC(O)=NC(Cc1ccc2ccccc2c1)C(O)=NC(Cc1ccc(Cl)cc1)C(O)=NC(Cc1c[nH]c2ccccc12)C(O)=NC(CO)C(O)=NC(Cc1ccc(O)cc1)C(O)=NC(CCCN=C(N)N)C(O)=NC(CC(C)C)C(O)=NC(CCCN=C(N)N)C(=O)N1CCCC1C(O)=NC(C)C(=N)O (stereo unspecified)" experimental_result="1% (inactive)"
compound="CCOC(=O)[C@H]1Nc2ccc(OC)cc2C2c3ccccc3CC21 (stereo partly specified)" experimental_result="-49% (inactive)"
compound=CCc1c[n+]([O-])c(C)cc1[N+](=O)[O-] experimental_result="12% (inactive)"
compound="CC(=O)OCC1OC2OC(=O)NC2C(OC(C)=O)C1OC(C)=O (stereo unspecified)" experimental_result="-1% (inactive)"
compound=Cc1ccc2nc(-c3cccc([N+](=O)[O-])c3)oc(=O)c2c1 experimental_result="-6% (inactive)"
compound=C[C](C)(C)[Ge]([O][Ge]([c]1ccccc1)[c]1ccccc1)([O][Ge]([c]1ccccc1)[c]1ccccc1)[C](C)(C)C experimental_result="1% (inactive)"
compound=c1ccc2[nH]c(-c3cscn3)nc2c1 experimental_result="-5% (inactive)"
compound=Nc1cc(N)c(N=Nc2cccc3c(S(=O)(=O)O)cccc23)cc1N=Nc1cc([N+](=O)[O-])ccc1O experimental_result="-22% (inactive)"
compound="C#CCN(Cc1ccc2nc(N)[nH]c(=O)c2c1)c1ccc(C(=O)NC(CCC(=O)O)C(=O)O)cc1 (stereo unspecified)" experimental_result="18% (inactive)"
compound=Cc1c2ccnc(C(=O)NCCN(C)C)c2cc2c3cc(O)ccc3n(C)c12 experimental_result="3% (inactive)"

###

assay: NCI Yeast Anticancer Drug Screen. Data for the mgt1 strain (AID 153); conditions: S. cerevisiae mgt1 mutant growth inhibition; at 33.0 µM
Compounds without any hit were thinned out: in the full panel of roughly 79,000, 15% have a hit. Active and inactive are the calls of the source. Rule as the data show it: active = growth inhibition above about 70%; inactive = the rest.
Classes used: 1 (active), -1 (inactive)

compound=CCOC(=O)c1[nH]n(-c2ccccc2)c(=O)c1C=NC(=S)C(N)=S category_label=-1
compound=O=[N+]([O-])/C=C/c1cc(Cl)c(/C=C/[N+](=O)[O-])cc1Cl category_label=1
compound=CCCCN(CCCC)C(=O)/C=C/c1ccccc1 category_label=-1
compound="COc1cc(C2SCC(=O)N2c2ccc(-c3ccc(-n4c(-c5ccccc5)nc5ccccc5c4=O)cc3)cc2)ccc1O (stereo not given)" category_label=-1
compound=Cc1sc2ccc3ccccc3c2[n+]1C category_label=-1

###

experiment: NCI Yeast Anticancer Drug Screen. Data for the bub3 strain (AID 167); details: S. cerevisiae bub3 mutant strain, at 33.0 µM
This is part of a sample that, as a whole, favours compounds with a hit. Of some 79,000 tested, about 15% had one in any assay. Activity calls are given as the source filed them. No stated cut-off is given here; in the data, active means growth inhibition above about 70%; inactive means the rest.
Classes used: active, inactive

compound=CCc1c[n+]([O-])c(C)cc1[N+](=O)[O-] category_label=inactive
compound="COc1ccc(NC(=O)CC2SC(=Nc3ccccc3C)NC2=O)c([N+](=O)[O-])c1 (stereo not drawn)" category_label=inactive
compound=CCCCCCCCCCCC1=NCCO1 category_label=inactive
compound=CC1(C)CC(=O)C(/C=N/c2nc(-c3ccccc3)cs2)=C(O)C1 category_label=inactive
compound=Oc1ccc(-c2nc(-c3ccc(F)cc3)c(-c3ccc4ccccc4n3)[nH]2)cc1 category_label=active
compound="CC(=O)OC1CCC2(C)C(=CC(C3C=C4CC(OC(C)=O)CCC4(C)C4=C3C3CC5OC6(CCC(C)CO6)C(C)C5C3(C)CC4)C3=C2CCC2(C)C3CC3OC4(CCC(C)CO4)C(C)C32)C1 (stereo not drawn)" category_label=inactive
compound=C/C=C/SC(=Nc1ccccc1)Nc1ccccc1 category_label=inactive
compound=CC(=O)Nc1ccc2c(c1)-c1ccccc1C2=O category_label=inactive
compound=CC1=NOC(=O)/C1=C/c1ccc2c(c1)OCO2 category_label=inactive
compound=COC(=O)/C=C(/CC(=O)OC)C(=O)OC category_label=inactive
compound=c1ccc(-c2cnc3ccccc3c2)cc1 category_label=inactive
compound=CC[N+](CC)(CC)c1ccccc1 category_label=inactive
compound=CCCC/C=C/C(C)(C(=O)OCC)C(=O)OCC category_label=inactive

###

Each entry below carries its recorded growth inhibition.
test: NCI Yeast Anticancer Drug Screen. Data for the bub3 strain (AID 167); settings: S. cerevisiae bub3 mutant strain, at 11.0 µM, hits give high values
Compounds without any hit were thinned out: in the full panel of roughly 79,000, 15% have a hit.
Quantity: growth inhibition (%)

compound="CCCCC(CC)C(=O)[O][Sn]([CH2]CCC)([CH2]CCC)[O]C(=O)C(CC)CCCC (stereo not given)" experimental_result=68
compound=Cc1nc(Nc2ccccc2[N+](=O)[O-])sc1C(=O)CC(=O)C(=O)Nc1c(C(C)C)cccc1C(C)C experimental_result=7
compound=Brc1ccccc1-c1ncc(-c2ccccc2)o1 experimental_result=52
compound="C=C1CC(CCCl)(c2ccccc2)OC1=O (stereo not given)" experimental_result=76
compound=CC(C)OC(=O)c1ccc(CCc2cc(O)c(Br)cc2O)cc1 experimental_result=52
compound=Oc1[nH]c2ccccc2c1N=NC(=S)N1CCCCC1 experimental_result=15
compound=Cc1c2ccnc(C(=O)NCCN(C)C)c2cc2c3cc(O)ccc3n(C)c12 experimental_result=4
compound=Cc1ccc(Cl)cc1NC(=O)OCCN(C)C(=O)Nc1cc(Cl)ccc1C experimental_result=-42
compound=COc1cc(/C=C2\NC(=O)N(/C=C3\C(=O)Oc4ccccc4C3=O)C2=O)ccc1O experimental_result=1
compound=O=C(CSC(=S)N1CCCCC1)Nc1nc2c(s1)CCCC2 experimental_result=-4
compound=Clc1ccc(NCNC2Nc3ccccc3N2)cc1Cl experimental_result=-2
compound=S=c1[nH]c2cc3ccccc3cc2[nH]1 experimental_result=-9
compound=Cc1cc(N(CCOS(C)(=O)=O)CCOS(C)(=O)=O)ccc1C=Nc1ccc(-c2csc(-c3ccccc3)n2)c(Cl)c1 experimental_result=76
compound="O=C(c1ccc([N+](=O)[O-])cc1)C1N=NCC1c1ccccc1 (stereo not given)" experimental_result=2
compound=NC(N)=NS(=O)(=O)c1ccc(Nc2c3ccccc3nc3c(C(=O)NCCO)cccc23)cc1 experimental_result=-4
compound="COC(=O)C1(C)CCc2c(ccc3ccccc23)C1=O (stereo not given)" experimental_result=57
compound=O=[N+]([O-])/C=C/c1cc(Cl)c(/C=C/[N+](=O)[O-])cc1Cl experimental_result=84
compound=COc1ccc(/C=C/c2sc3ccccc3[n+]2CCCCI)cc1OC experimental_result=-2
compound="CCCCN(CCCC)CCC(O)c1cc2c(Cl)cc(Cl)cc2c2cc(C(F)(F)F)ccc12 (stereo not given)" experimental_result=97
compound=Cc1cc(C(C)(C)C)c(OCCCN2CCOCC2)c(C(C)(C)C)c1 experimental_result=-32
compound="O=C1/C(=C/c2ccccc2)CCCC1CN1CCCCC1 (stereo not given)" experimental_result=79
compound=CN(C)c1nc(=Nc2cccc(Cl)c2)ss1 experimental_result=98
compound="OC(CCNCc1ccccc1)c1ccc2ccccc2c1 (stereo not given)" experimental_result=68
compound=CCc1cc(O)c(Cl)c(C)c1Cl experimental_result=5
compound="CC1CC(C)(C)CC(OCCN2CCCCC2)(c2ccccc2)C1 (stereo not given)" experimental_result=17
compound="OC1(c2ccccc2)CCCc2ccc(Cl)cc21 (stereo not given)" experimental_result=-14
compound="CCCCCCCCCCCC1N=C(N)NC(CCCO)=C1C(=O)OC (stereo not given)" experimental_result=99
compound=COc1ccc(/C=C/C(=O)c2ccccc2)cc1OC experimental_result=-36
compound=CCCC(=O)Oc1c(C)cc([N+](=O)[O-])cc1[N+](=O)[O-] experimental_result=98
compound=O=C(O)c1cc2ccc(Cl)cc2c(O)c1C1=CCCCC1 experimental_result=-5
